# Test system: 786-0 complex spheroids with HUVEC/MSC, growth % test/control
# ASSAY PROCEDURE: Anticancer human tumor 786-0 cell line growth inhibition [AhR];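 note: compound exposure lasted seven days before the read-out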
# CONDITION SUMMARY: second compound 3.16 µM; first compound 0.000316 µM; stronger effect = lower value
Give viability, T/C for every item shown.

Query block: Give the measured viability, T/C of CC[C@@]1(O)C(=O)OCc2c1cc1n(c2=O)Cc2cc3c(CN(C)C)c(O)ccc3nc2-1 + Cc1cncc(-c2nc(NCCc3c[nH]c4ccccc34)c3ncn(C(C)C)c3n2)c1 .
Result block: 73.4%

Query block: Query Cn1ncnc1C1c2n[nH]c(=O)c3cc(F)cc(c23)NC1c1ccc(F)cc1 (stereo unspecified) + CC(CO)NC(=O)c1cc(-c2ccc(Cl)cc2)nn(-c2cnn(C)c2)c1=O next
Result block: 107%

Query block: Query CC[C@@]1(O)C(=O)OCc2c1cc1n(c2=O)Cc2cc3c(CN(C)C)c(O)ccc3nc2-1 + CC(CO)NC(=O)c1cc(-c2ccc(Cl)cc2)nn(-c2cnn(C)c2)c1=O next
Result block: 113%

Query block: Query Cn1ncnc1C1c2n[nH]c(=O)c3cc(F)cc(c23)NC1c1ccc(F)cc1 (stereo unspecified) + Cc1cncc(-c2nc(NCCc3c[nH]c4ccccc34)c3ncn(C(C)C)c3n2)c1 next
Result block: 76.6%

Query block: Query Cn1ncnc1C1c2n[nH]c(=O)c3cc(F)cc(c23)NC1c1ccc(F)cc1 (stereo unspecified) + Cc1ccccc1N=Nc1ccc(NC(=O)c2ccnn2C)c(C)c1 next
Result block: 92.3%

Query block: Query CC[C@@]1(O)C(=O)OCc2c1cc1n(c2=O)Cc2cc3c(CN(C)C)c(O)ccc3nc2-1 + Cc1ccccc1N=Nc1ccc(NC(=O)c2ccnn2C)c(C)c1 next
Result block: 96.4%

====

Give viability, T/C for every item shown.
# System: 786-0 complex spheroids with HUVEC/MSC, growth % test/control
# ASSAY PROCEDURE: Anticancer human tumor 786-0 cell line growth inhibition [AhR];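 note: compound exposure lasted seven days before the read-out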
# CONDITION SUMMARY: second compound 10 µM; first compound 0.00316 µM; stronger effect = lower value
# Text: Multicellular complex tumor spheroid response to aryl hydrocarbon receptor antagonists in combination with a variety of drugs and investigational agents in selected tumor cell lines […] Compounds. […] If the clinical Cmax for an agent had not been determined, the highest concentration tested was 10 microM (Table 1). […]
Your answer should be a plain number; it is taken to be in %.

Query block: Find viability, T/C (786-0 complex spheroids with HUVEC/MSC, growth % test/control) for the entry CC[C@@]1(O)C(=O)OCc2c1cc1n(c2=O)Cc2cc3c(CN(C)C)c(O)ccc3nc2-1 + Cc1ccccc1N=Nc1ccc(NC(=O)c2ccnn2C)c(C)c1
Result block: 86.4

Query block: Query CC1COCCN1c1cc(-c2ccnn2C)c2ccnc(-c3ccn[nH]3)c2n1 (stereo not drawn) + Cc1cncc(-c2nc(NCCc3c[nH]c4ccccc34)c3ncn(C(C)C)c3n2)c1 next
Result block: 8.14

Query block: Query Nc1ncn(C2CC(O)C(CO)O2)c(=O)n1 (stereo not drawn) + Cc1ccccc1N=Nc1ccc(NC(=O)c2ccnn2C)c(C)c1 next
Result block: 93.4

====

# System: 786-0 complex spheroids with HUVEC/MSC, growth % test/control
# ASSAY PROCEDURE: Anticancer human tumor 786-0 cell line growth inhibition [AhR];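 note: compound exposure lasted seven days before the read-out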
# CONDITION SUMMARY: second compound 3.16 µM; first compound 1 µM; stronger effect = lower value
MEASUREMENT TYPE: viability, T/C (%)
Your answer should be a plain number; it is taken to be in %.

Query block: Give the measured viability, T/C of NS(=O)(=O)OCC1CC(n2ccc3c(NC4CCc5ccccc54)ncnc32)CC1O (configuration not stated) + CC(CO)NC(=O)c1cc(-c2ccc(Cl)cc2)nn(-c2cnn(C)c2)c1=O .
Result block: 19.1

Query block: Query Nc1ccccc1NC(=O)c1ccc(CNC(=O)OCc2cccnc2)cc1 + Cc1cncc(-c2nc(NCCc3c[nH]c4ccccc34)c3ncn(C(C)C)c3n2)c1 next
Result block: 60.5

Query block: Query COc1cc(C2c3cc4c(cc3C(OC3OC5COC(C)OC5C(O)C3O)C3COC(=O)C23)OCO4)cc(OC)c1O (configuration not stated) + Cc1cncc(-c2nc(NCCc3c[nH]c4ccccc34)c3ncn(C(C)C)c3n2)c1 next
Result block: 30.5

Query block: Query COc1cc(Nc2ncc3c(n2)-c2ccc(Cl)cc2C(c2c(F)cccc2OC)=NC3)ccc1C(=O)O + Cc1ccccc1N=Nc1ccc(NC(=O)c2ccnn2C)c(C)c1 next
Result block: 82.3

Query block: Query CC1(C)CCC(CN2CCN(c3ccc(C(=O)NS(=O)(=O)c4ccc(NCC5CCOCC5)c([N+](=O)[O-])c4)c(Oc4cnc5[nH]ccc5c4)c3)CC2)=C(c2ccc(Cl)cc2)C1 + Cc1ccccc1N=Nc1ccc(NC(=O)c2ccnn2C)c(C)c1 next
Result block: 90.4

Query block: Query O=C(C=Cc1cccc(S(=O)(=O)Nc2ccccc2)c1)NO + CC(CO)NC(=O)c1cc(-c2ccc(Cl)cc2)nn(-c2cnn(C)c2)c1=O next
Result block: 101

Query block: Query NS(=O)(=O)OCC1CC(n2ccc3c(NC4CCc5ccccc54)ncnc32)CC1O (configuration not stated) + Cc1cncc(-c2nc(NCCc3c[nH]c4ccccc34)c3ncn(C(C)C)c3n2)c1 next
Result block: 16.5

Query block: Query O=C(c1cc(Cc2n[nH]c(=O)c3ccccc23)ccc1F)N1CCN(C(=O)C2CC2)CC1 + Cc1cncc(-c2nc(NCCc3c[nH]c4ccccc34)c3ncn(C(C)C)c3n2)c1 next
Result block: 85.1

Query block: Query O=C(C=Cc1cccc(S(=O)(=O)Nc2ccccc2)c1)NO + Cc1cncc(-c2nc(NCCc3c[nH]c4ccccc34)c3ncn(C(C)C)c3n2)c1 next
Result block: 53.7

Query block: Query Nc1ncn(C2CC(O)C(CO)O2)c(=O)n1 (configuration not stated) + Cc1cncc(-c2nc(NCCc3c[nH]c4ccccc34)c3ncn(C(C)C)c3n2)c1 next
Result block: 76.2

Query block: Query COc1cc(Nc2ncc3c(n2)-c2ccc(Cl)cc2C(c2c(F)cccc2OC)=NC3)ccc1C(=O)O + CC(CO)NC(=O)c1cc(-c2ccc(Cl)cc2)nn(-c2cnn(C)c2)c1=O next
Result block: 87.9

Query block: Query CC1COCCN1c1cc(C2(S(C)(=N)=O)CC2)nc(-c2ccnc3[nH]ccc23)n1 (configuration not stated) + Cc1cncc(-c2nc(NCCc3c[nH]c4ccccc34)c3ncn(C(C)C)c3n2)c1 next
Result block: 53.6
